test: Metabolic stability in mouse liver microsomes S9 fraction assessed as CYP450-mediated metabolism by measuring parent compound remaining measured after 15 mins in presence of NADPH; assay type: ADME, subcellular; details: read-out: Stability
This section presents molecules with their documented remaining at 0.25 h values.
VALUE TYPE: remaining at 0.25 h (%)

>>> df
                              smiles_string           value_type  value_observed
0  Cc1ncnc2c1c(-c1cc(Cl)ccn1)cn2[C@@H]1O[C@H](CO)[C@@H](O)[C@H]1O  remaining at 0.25 h             109
1  Cc1ncnc2c1c(-c1ncccc1Cl)cn2[C@@H]1O[C@H](CO)[C@@H](O)[C@H]1O  remaining at 0.25 h              98

* * *

assay: Clearance in golden hamster infected with Leishmania infantum MHOM/MA(BE)/67 amastigotes at 50 mg/kg, po SID and measured after 24 hrs by LC-MS/MS analysis; assay type: ADME, organism-based, Mesocricetus auratus; details: in vivo
VALUE TYPE: CL/F (mL/min/kg)

>>> print(df.to_string())
                              smiles_string  value_type  value_observed
0  Cc1ncnc2c1c(-c1cc(Cl)ccn1)cn2[C@@H]1O[C@H](CO)[C@@H](O)[C@H]1O        CL/F            56.6

* * *

target: Cytochrome P450 (Homo sapiens, UniProt P04798+P05177+P05181+P08684+P10632+P10635+P11509+P11712+P13584+P20813+P20815+P20853+P24462+P24903+P33260+P33261+P51589+P78329+P98187+Q02928+Q08477+Q16678+Q16696+Q5TCH4+Q6VVX0+Q7Z449+Q8TAV3+Q96SQ9+Q9HB55); experiment: Metabolic stability in human liver microsomes S9 fraction assessed as CYP450-mediated metabolism by measuring parent compound remaining measured after 15 mins in presence of NADPH; type: ADME, subcellular; details: read-out: Stability
VALUE TYPE: remaining at 0.25 h (%)

>>> print(df.to_string())
                              smiles_string           value_type  value_observed
0  Cc1ncnc2c1c(-c1cc(Cl)ccn1)cn2[C@@H]1O[C@H](CO)[C@@H](O)[C@H]1O  remaining at 0.25 h              92
1  Cc1ncnc2c1c(-c1ncccc1Cl)cn2[C@@H]1O[C@H](CO)[C@@H](O)[C@H]1O  remaining at 0.25 h             107

* * *

This section presents compounds with their documented remaining at 0.5 h values.
assay: Metabolic stability in golden hamster liver microsomes S9 fraction assessed as CYP450-mediated metabolism by measuring parent compound remaining measured after 30 mins in presence of NADPH; assay type: ADME, subcellular, Mesocricetus auratus; details: read-out: Stability
VALUE TYPE: remaining at 0.5 h (%)

                              smiles_string  value_observed
0  Cc1ncnc2c1c(-c1ncccc1Cl)cn2[C@@H]1O[C@H](CO)[C@@H](O)[C@H]1O              98
1  Cc1ncnc2c1c(-c1cc(Cl)ccn1)cn2[C@@H]1O[C@H](CO)[C@@H](O)[C@H]1O              95

* * *

experiment: AUC (0 to 24) in golden hamster infected with Leishmania infantum MHOM/MA(BE)/67 amastigotes at 50 mg/kg, po SID and measured after 24 hrs by LC-MS/MS analysis; assay type: ADME, organism-based, Mesocricetus auratus; design: time 24 hrs, dose 50 mg/kg, route po; details: in vivo
VALUE TYPE: AUC at 24 h (ng·h/mL)

>>> df
                              smiles_string  unit_spec  value_observed
0  Cc1ncnc2c1c(-c1cc(Cl)ccn1)cn2[C@@H]1O[C@H](CO)[C@@H](O)[C@H]1O    ng·h/mL            2080

* * *

test: AUC (0 to 8) in golden hamster infected with Leishmania infantum MHOM/MA(BE)/67 amastigotes at 50 mg/kg, po SID and measured after 10 days by LC-MS/MS analysis; format: ADME, organism-based, Mesocricetus auratus; parameters: dose 50 mg/kg, time 10 day, route po; details: in vivo
VALUE TYPE: AUC at 240 h (ng·h/mL)

>>> print(df.to_string())
                              smiles_string    value_type  value_observed
0  Cc1ncnc2c1c(-c1cc(Cl)ccn1)cn2[C@@H]1O[C@H](CO)[C@@H](O)[C@H]1O  AUC at 240 h            2840

* * *

assay: Metabolic stability in mouse liver microsomes S9 fraction assessed as UGT-mediated metabolism by measuring parent compound remaining measured after 60 mins in presence of NADPH; assay type: ADME, subcellular; settings: read-out: Stability
This section presents compounds with their documented remaining at 1 h values.
VALUE TYPE: remaining at 1 h (%)

>>> df
                              smiles_string  value_observed
0  Cc1ncnc2c1c(-c1ncccc1Cl)cn2[C@@H]1O[C@H](CO)[C@@H](O)[C@H]1O              98
1  Cc1ncnc2c1c(-c1cc(Cl)ccn1)cn2[C@@H]1O[C@H](CO)[C@@H](O)[C@H]1O             100

* * *

This section presents compounds with their documented remaining at 1 h values.
experiment: Metabolic stability in mouse liver microsomes S9 fraction assessed as CYP450-mediated metabolism by measuring parent compound remaining measured after 60 mins in presence of NADPH; assay type: ADME, subcellular; settings: read-out: Stability
VALUE TYPE: remaining at 1 h (%)

In [3]: df
Out[3]:
                              smiles_string  value_observed
0  Cc1ncnc2c1c(-c1cc(Cl)ccn1)cn2[C@@H]1O[C@H](CO)[C@@H](O)[C@H]1O              94
1  Cc1ncnc2c1c(-c1ncccc1Cl)cn2[C@@H]1O[C@H](CO)[C@@H](O)[C@H]1O              74

* * *

test: Half life in golden hamster infected with Leishmania infantum MHOM/MA(BE)/67 amastigotes at 50 mg/kg, po SID and measured after 10 days by LC-MS/MS analysis; format: ADME, organism-based, Mesocricetus auratus; conditions: in vivo, time 10 day
VALUE TYPE: half-life (h)

In [3]: df
Out[3]:
                              smiles_string  value_observed
0  Cc1ncnc2c1c(-c1cc(Cl)ccn1)cn2[C@@H]1O[C@H](CO)[C@@H](O)[C@H]1O             1.7

* * *

molecular target: UDP-glucuronosyltransferases (UGTs) (Homo sapiens, UniProt O60656+O75310+O75795+P06133+P0DTE4+P0DTE5+P16662+P19224+P22309+P22310+P35503+P35504+P36537+P54855+Q6UWM9+Q9BY64+Q9HAW7+Q9HAW8+Q9HAW9); test: Metabolic stability in human liver microsomes S9 fraction assessed as UGT-mediated metabolism by measuring parent compound remaining measured after 60 mins in presence of NADPH; format: ADME, subcellular; conditions: read-out: Stability
VALUE TYPE: remaining at 1 h (%)

>>> df
                              smiles_string  value_observed
0  Cc1ncnc2c1c(-c1cc(Cl)ccn1)cn2[C@@H]1O[C@H](CO)[C@@H](O)[C@H]1O              98
1  Cc1ncnc2c1c(-c1ncccc1Cl)cn2[C@@H]1O[C@H](CO)[C@@H](O)[C@H]1O             101

* * *

This section presents compounds with their documented selectivity ratio values.
assay: Selectivity index, ratio of CC50 for Cytotoxicity against Swiss mouse peritoneal macrophages to EC50 for intracellular Leishmania infantum MHOM/MA(BE)/67 ITMAP263 amastigotes infected in Swiss mouse peritoneal macrophages; type: toxicity, cell-based; details: read-out: Ratio CC50/EC50
VALUE TYPE: selectivity ratio

                              smiles_string  value_observed
0  Cc1ncnc2c1c(-c1cccc3c1N=CC3)cn2[C@@H]1O[C@H](CO)[C@@H](O)[C@H]1O            > 30
1  Cc1ncnc2c1c(-c1cnccn1)cn2[C@@H]1O[C@H](CO)[C@@H](O)[C@H]1O           > 6.3
2  Cc1ncnc2c1c(-c1cc(Cl)ccn1)cn2[C@@H]1O[C@H](CO)[C@@H](O)[C@H]1O            > 94
3  Cc1ncnc2c1c(-c1cccc3c1oc1ccccc13)cn2[C@@H]1O[C@H](CO)[C@@H](O)[C@H]1O           > 1.2
4  Cc1ncnc2c1c(-c1cnn(C)c1)cn2[C@@H]1O[C@H](CO)[C@@H](O)[C@H]1O             > 8
5  Cc1ncnc2c1c(-c1ccccc1Cl)cn2[C@@H]1O[C@H](CO)[C@@H](O)[C@H]1O           > 3.1
6  Cc1ncnc2c1c(-c1ccc(S(C)(=O)=O)cc1)cn2[C@@H]1O[C@H](CO)[C@@H](O)[C@H]1O           > 9.5
7  Cc1ncnc2c1c(-c1ccc(Cl)cc1)cn2[C@@H]1O[C@H](CO)[C@@H](O)[C@H]1O           > 3.5
